Protocol Notes: qHTS assay to identify small molecule agonists of the farnesoid-X-receptor (FXR) signaling pathway - cell viability counter screen (AID 743218); also: nearly all actives have a fitted effect of over 45% in size
Condition Set: FXR-bla HEK293T viability, CellTiter-Glo luminescence, 16 h; series mostly up to 62.6 µM
Results filed as inconclusive are left out. The source made the active and inactive calls. Calls follow the shape of the dose curve; as a rule, active = well fitted cell-killing curve with a large enough effect in the repeat runs; inconclusive = weak or mixed curves, or effect the other way; inactive = no such curve, though single readings can be large or run the other way.
Can you answer with just one of these options? true (1) = active, false (0) = inactive

Check out these entries, answers already filled in.
Compound: COC(=O)C1(O)c2ccccc2-c2ccccc21
Label Class: false (0)
--
Compound: CCc1ccccc1N
Label Class: false (0)
--
Compound: O=S(=O)(Cl)Cl
Label Class: false (0)
--
Compound: C=CCOC(=O)C(C)(C)OC(=O)c1cc(-n2c(=O)cc(C(F)(F)F)n(C)c2=O)ccc1Cl
Label Class: false (0)
--
Compound: C[C@]12C=CC3=C4CCC(=O)C=C4CC[C@H]3[C@@H]1CC[C@@H]2O
Label Class: false (0)

Record request — test call for CC(C)C1(C)N=C(c2ncccc2C(=O)O)NC1=O (stereo not given)
false (0)

Record request — test call for O=C(NC(=O)c1cc(F)c(F)cc1Cl)Nc1cc(F)ccc1N1CCC(C(=O)O)CC1
false (0)

Record request — test call for CCCC[N+]1(C)[C@@H]2CC(OC(=O)[C@H](CO)c3ccccc3)C[C@H]1[C@@H]1O[C@@H]12 (stereo not given in full)
false (0)

Data provenance is PubChem BioAssay (Tox21).
